# SUBJECT OF TEST: angiotensin converting enzyme (ACE) (Oryctolagus cuniculus)
# Construct: Using ACE isolated from rabbit lungs
# Sequence (P12822 34-1310): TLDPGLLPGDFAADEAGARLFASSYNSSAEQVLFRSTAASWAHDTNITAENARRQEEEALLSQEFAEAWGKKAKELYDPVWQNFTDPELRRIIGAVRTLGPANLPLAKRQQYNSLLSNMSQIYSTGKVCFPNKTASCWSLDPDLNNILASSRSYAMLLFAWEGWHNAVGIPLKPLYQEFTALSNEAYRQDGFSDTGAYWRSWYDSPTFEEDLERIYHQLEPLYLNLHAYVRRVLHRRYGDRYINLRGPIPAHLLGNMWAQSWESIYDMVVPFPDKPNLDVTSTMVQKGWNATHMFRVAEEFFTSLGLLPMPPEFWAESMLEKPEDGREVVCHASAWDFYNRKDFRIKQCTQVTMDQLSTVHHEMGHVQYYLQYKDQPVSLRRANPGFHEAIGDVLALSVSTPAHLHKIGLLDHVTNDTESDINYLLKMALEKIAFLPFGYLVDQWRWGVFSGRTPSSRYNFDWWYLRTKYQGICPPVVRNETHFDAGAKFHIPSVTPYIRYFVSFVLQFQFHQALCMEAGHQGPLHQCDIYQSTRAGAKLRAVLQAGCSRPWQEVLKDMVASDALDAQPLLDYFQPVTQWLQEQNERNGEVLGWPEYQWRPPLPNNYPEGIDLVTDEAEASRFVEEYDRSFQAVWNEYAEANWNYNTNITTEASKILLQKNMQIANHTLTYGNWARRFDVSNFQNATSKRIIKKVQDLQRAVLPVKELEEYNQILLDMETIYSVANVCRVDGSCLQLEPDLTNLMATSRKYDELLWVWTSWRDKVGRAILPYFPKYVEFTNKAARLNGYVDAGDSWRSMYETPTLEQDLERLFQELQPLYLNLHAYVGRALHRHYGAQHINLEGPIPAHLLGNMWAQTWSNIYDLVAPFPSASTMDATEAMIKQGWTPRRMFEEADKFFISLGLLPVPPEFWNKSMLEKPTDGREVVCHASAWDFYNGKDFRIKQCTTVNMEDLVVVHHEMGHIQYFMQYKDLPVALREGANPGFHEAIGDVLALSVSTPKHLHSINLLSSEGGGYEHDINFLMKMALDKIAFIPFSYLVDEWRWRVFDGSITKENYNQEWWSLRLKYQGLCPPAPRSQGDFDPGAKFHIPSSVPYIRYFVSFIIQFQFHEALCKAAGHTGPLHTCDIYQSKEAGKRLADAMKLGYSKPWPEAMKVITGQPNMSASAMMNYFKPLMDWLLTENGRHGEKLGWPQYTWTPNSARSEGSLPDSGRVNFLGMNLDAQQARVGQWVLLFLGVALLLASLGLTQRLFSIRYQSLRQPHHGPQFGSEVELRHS
# EXPERIMENT SUMMARY: in vitro evaluation of inhibitory effects on ACE activity (method of Cushman)
# SETUP CONDITIONS: Table 1; ACE isolated from rabbit lungs, in vitro
Counter-ions that a name gives are not always drawn.
A collection of molecules and their measured pIC50
Scale note: pIC50 = -log10(concentration in M).

Answered cases to consult:
> print(dat)
                                   molecule  reading
1  CC(NC1CSc2ccccc2N(CC(=O)O)C1=O)C(=O)O (stereo not drawn) [Example 13, hydrochloride]     6.33
2  CCOC(=O)C(C)NC1CSc2ccccc2N(CC(=O)O)C1=O (stereo not drawn) [Example 12, hydrochloride]     5.15
3  CCCCCCCCC(NC1CSc2ccccc2N(CC(=O)O)C1=O)C(=O)O (stereo not drawn)     8.00
4  O=C(O)CNC1CSc2ccccc2N(CC(=O)O)C1=O (stereo not drawn) [Example 16, hydrochloride]     5.09

Okay, now this molecule:
Q: I'd like to know its pIC50. The molecule in question is CCCCCCCCC(NC1CSc2ccccc2N(CC(=O)O)C1=O)C(=O)OCC (stereo not drawn)
Result: 6.80
